Task for the reader: assign each of the following binders its reported MFI.
experimental.system: T1, monkey SEMA4D, full length, on CHO-K1 cells (CHO-K1 cSEMA4D) (monkey)
T1 construct: whole, on cells; also called monkey SEMA4D recombinant cells
protocol.text: FACS, CHO-K1 cSEMA4D cells; Ab 13.3 nM

Recorded results for 3 binders are shown here.
38H2E3 (antibody, V domains shown, Mouse monoclonal antibody purified from hybridoma supernatant on protein A) VH: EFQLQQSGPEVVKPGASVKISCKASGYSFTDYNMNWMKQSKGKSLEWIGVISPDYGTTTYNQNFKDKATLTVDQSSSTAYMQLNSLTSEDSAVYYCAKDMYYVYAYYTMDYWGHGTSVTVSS VL: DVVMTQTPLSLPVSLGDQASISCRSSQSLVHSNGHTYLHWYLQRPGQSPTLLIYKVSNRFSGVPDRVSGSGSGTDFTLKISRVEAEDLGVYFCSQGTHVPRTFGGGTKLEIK : 2800
31G10C5 (antibody, V domains shown, Mouse monoclonal antibody purified from hybridoma supernatant on protein A) VH: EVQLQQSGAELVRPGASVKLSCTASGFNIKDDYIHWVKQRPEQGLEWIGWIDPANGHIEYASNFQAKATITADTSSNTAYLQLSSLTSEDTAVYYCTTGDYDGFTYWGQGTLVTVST VL: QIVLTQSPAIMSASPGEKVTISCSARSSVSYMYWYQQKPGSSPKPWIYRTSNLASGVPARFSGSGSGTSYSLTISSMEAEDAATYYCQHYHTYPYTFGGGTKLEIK : 4580
37F11F9 (antibody, V domains shown, Mouse monoclonal antibody purified from hybridoma supernatant on protein A) VH: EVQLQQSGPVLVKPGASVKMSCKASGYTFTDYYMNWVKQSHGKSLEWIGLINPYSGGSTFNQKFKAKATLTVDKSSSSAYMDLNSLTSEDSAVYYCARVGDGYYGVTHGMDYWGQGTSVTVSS VL: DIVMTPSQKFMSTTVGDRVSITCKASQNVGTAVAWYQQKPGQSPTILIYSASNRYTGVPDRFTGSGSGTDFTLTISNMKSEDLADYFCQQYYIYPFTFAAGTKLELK : 2480

Lab note: next binder to report on.
Q. Param item = 37C4F7 (antibody, V domains shown, Mouse monoclonal antibody purified from hybridoma supernatant on protein A) VH: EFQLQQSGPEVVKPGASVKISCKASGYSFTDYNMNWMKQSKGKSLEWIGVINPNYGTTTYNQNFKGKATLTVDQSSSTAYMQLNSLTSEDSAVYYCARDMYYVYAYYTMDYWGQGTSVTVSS VL: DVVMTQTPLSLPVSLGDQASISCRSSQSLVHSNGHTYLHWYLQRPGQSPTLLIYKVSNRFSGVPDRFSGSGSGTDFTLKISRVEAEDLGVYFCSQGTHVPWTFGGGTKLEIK ; retrieve measured MFI.
A. 2790
